Quick list: IC50 per entry.
# Experimental System: NaV1.5 (Homo sapiens, UniProt Q14524)
# Construct: permanently transfected with an expression vector containing the full-length cDNA coding for the desired human sodium channel α-subunit; expressed in transfected cells; host or cells: HEK-293
# Sequence (Q14524 whole entry): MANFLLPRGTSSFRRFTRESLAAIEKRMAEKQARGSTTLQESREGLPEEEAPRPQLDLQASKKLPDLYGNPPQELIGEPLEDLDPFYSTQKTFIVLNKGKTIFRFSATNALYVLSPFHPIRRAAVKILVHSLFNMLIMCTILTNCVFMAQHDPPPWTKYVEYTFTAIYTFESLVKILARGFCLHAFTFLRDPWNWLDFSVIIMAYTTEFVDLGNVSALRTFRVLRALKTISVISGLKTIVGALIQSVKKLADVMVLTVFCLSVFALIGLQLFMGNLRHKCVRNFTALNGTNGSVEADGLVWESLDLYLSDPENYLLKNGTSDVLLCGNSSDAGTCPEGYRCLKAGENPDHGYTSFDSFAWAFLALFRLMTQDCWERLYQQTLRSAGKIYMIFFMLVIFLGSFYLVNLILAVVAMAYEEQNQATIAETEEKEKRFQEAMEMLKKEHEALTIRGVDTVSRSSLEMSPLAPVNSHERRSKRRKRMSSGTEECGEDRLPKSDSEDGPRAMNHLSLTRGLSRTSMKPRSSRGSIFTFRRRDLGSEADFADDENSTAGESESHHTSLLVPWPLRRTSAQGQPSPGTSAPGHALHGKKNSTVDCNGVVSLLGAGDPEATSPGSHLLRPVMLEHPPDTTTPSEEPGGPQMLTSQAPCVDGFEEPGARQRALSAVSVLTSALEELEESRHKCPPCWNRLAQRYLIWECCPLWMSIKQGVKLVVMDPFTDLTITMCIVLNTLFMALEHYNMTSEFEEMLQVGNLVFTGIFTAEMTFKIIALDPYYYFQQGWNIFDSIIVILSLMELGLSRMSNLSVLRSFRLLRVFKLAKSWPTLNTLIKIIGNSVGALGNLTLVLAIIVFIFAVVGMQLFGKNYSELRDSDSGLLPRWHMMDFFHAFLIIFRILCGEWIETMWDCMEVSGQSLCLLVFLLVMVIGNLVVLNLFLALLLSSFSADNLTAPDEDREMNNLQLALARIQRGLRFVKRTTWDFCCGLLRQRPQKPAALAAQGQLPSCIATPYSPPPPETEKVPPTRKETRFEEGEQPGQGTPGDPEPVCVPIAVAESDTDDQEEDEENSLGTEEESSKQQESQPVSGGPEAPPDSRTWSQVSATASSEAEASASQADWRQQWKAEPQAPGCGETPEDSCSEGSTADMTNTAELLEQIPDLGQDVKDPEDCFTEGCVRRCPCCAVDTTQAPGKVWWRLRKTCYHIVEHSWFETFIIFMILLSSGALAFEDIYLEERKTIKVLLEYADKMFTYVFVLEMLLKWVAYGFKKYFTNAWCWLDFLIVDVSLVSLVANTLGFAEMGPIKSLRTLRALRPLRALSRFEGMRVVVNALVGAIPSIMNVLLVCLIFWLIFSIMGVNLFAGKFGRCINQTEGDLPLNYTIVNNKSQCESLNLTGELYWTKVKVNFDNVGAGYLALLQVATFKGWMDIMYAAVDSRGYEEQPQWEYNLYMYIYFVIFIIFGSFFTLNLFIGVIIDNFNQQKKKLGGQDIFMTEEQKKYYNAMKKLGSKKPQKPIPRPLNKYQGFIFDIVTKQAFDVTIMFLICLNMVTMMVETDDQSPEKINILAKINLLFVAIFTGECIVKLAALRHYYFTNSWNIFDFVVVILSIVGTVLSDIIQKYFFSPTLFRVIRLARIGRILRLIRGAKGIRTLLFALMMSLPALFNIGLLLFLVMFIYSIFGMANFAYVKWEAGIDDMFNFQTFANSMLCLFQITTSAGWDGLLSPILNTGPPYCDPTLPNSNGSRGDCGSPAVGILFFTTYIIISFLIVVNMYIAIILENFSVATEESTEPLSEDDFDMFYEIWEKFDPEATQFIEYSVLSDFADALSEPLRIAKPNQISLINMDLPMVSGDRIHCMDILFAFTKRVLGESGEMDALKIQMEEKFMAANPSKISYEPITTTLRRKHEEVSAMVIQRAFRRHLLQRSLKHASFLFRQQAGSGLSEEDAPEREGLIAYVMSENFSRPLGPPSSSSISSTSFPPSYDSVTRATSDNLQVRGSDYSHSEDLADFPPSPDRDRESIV
# Assay Procedure: Patch voltage clamp electrophysiology assay (EP), NaV1.5
# Format: cell-based
# Measurement Context: HEK-293 cells stably expressing NaV1.5 with β1 subunit; whole-cell patch clamp, membrane potential −60 mV (inactivated state); read-out: Nav1.5
# Method: The following patch voltage clamp electrophysiology studies were performed on representative compounds of the invention using human embryonic kidney cells (HEK), permanently transfected with an expression vector containing the full-length cDNA coding for the desired human sodium channel α-subunit, grown in culture media containing 10% FBS, 1% PSG, and 0.5 mg/mL G418 at 37° C. with 5% CO2. […]
Hi! Could you send only the number? It should be in µM, unit omitted.

{"Compound": "C[C@H]1CCN(C(=O)c2cc(C3CC3)c(OCC34CC5CC(CC(C5)C3)C4)cc2F)[C@@H]1C(=O)O [Example 149]", "Reported Metric": "IC50", "Unit Text": "µM", "Numeric Result": 17}

Query :: Give recorded IC50. CC1(C)[C@H]2CC[C@H](COc3cc(F)c(C(=O)N4CCC[C@H]4C(=O)O)cc3C3CC3)[C@@H]1C2 [Example 90]
Result :: 13

Query :: Determine its reported IC50: O=C(O)[C@@H]1C[C@@H](F)CN1C(=O)c1cc(C2CC2)c(OCC2(F)CCN(Cc3ccc(C(F)(F)F)cc3Cl)CC2)cc1F [Example 127]
Result :: 13

* * *

Here, each record is paired with measured IC50 data.
# Experimental System: NaV1.5 (Homo sapiens)
# Construct: permanently transfected with an expression vector containing the full-length cDNA coding for the desired human sodium channel α-subunit; expressed in transfected cells; host or cells: HEK-293
# Assay Procedure: Patch voltage clamp electrophysiology assay (EP), NaV1.5
# Assay type: cell-based
# Measurement Context: HEK-293 cells stably expressing NaV1.5 with β1 subunit; whole-cell patch clamp, membrane potential −60 mV (inactivated state); read-out: Nav1.5
Respond numerically; units are µM and should not be typed.

{"Compound": "C[C@@H](c1cc(Cl)cc(Cl)c1)N1CCC(COc2cc(F)c(C(=O)N3C[C@H](Cl)C[C@H]3C(=O)O)cc2C2CC2)CC1 [Example 169]", "Numeric Result": 13}
{"Compound": "O=C(O)C[C@@H]1CCCN1C(=O)c1cc(C2CC2)c(OCC23CC4CC(CC(C4)C2)C3)cc1F [Example 206]", "Numeric Result": 16}
{"Compound": "CC[C@@H]1CCN(C(=O)c2cc(C3CC3)c(OCC34CC5CC(CC(C5)C3)C4)cc2F)[C@H]1C(=O)O [Example 168b]", "Numeric Result": 8.2}

Attention now turns to another entry.
Query :: Report measured IC50; entry is O=C(O)[C@@H]1C[C@@H](F)CN1C(=O)c1cc(C2CC2)c(OCC2CCN([C@@H](c3ccccc3)c3cc(Cl)cc(Cl)c3)CC2)cc1F (single isomer, unassigned) [Example 125]
Result :: 6.2
